I'd be grateful if you could share measured selectivity ratio for these entries.
- ASSAY PROTOCOL: Therapeutic index, ratio of TD50 for human HFF to IC50 for Toxoplasma gondii 2F tachyzoites
- MEASUREMENT SETUP: HFF cells and Toxoplasma gondii 2F tachyzoites, read-out: TI
Give the figure by itself; no unit, no explanation.

## Task Fill in: selectivity ratio of CCOC(=O)c1csc(N/N=C(\C)c2cccnc2)n1 is ___
## Result 17

## Task Tell me the measured selectivity ratio of CCOC(=O)c1csc(NN=C2CCCC2)n1 , please.
## Result 6

## Task Any idea what its selectivity ratio is? The compound is CCOC(=O)c1csc(N/N=C2/CCC(C)C2)n1 (stereo not drawn)
## Result 10

## Task Requested read-out: selectivity ratio. Entry: CCOC(=O)c1csc(NN=C2CCCCCC2)n1
## Result 7

## Task Recorded selectivity ratio for CCOC(=O)c1csc(N/N=C(\C)c2ccco2)n1 , please?
## Result 5

## Task What does the data say about its selectivity ratio? Entry: CCOC(=O)c1csc(N/N=C/c2cccnc2)n1
## Result 4

## Task Form field: reported selectivity ratio of COc1cc(Cc2cnc(N)nc2N)cc(OC)c1OC
## Result 41

## Task Field request: selectivity ratio | item: CCOC(=O)c1csc(NN=C2CCC(C)CC2)n1 (stereo not drawn)
## Result 9

## Task Query: selectivity ratio; subject: CCOC(=O)c1csc(N/N=C(\C)c2cc3ccccc3oc2=O)n1
## Result 27

## Task State the recorded selectivity ratio for this entry: CCOC(=O)c1csc(N/N=C2/CCCC(C)C2)n1 (stereo not drawn)
## Result 6

## Task Any idea what selectivity ratio was measured for CCOC(=O)c1csc(N/N=C/c2cccc3ccccc23)n1 ?
## Result 11

## Task // returns reported selectivity ratio for input CCOC(=O)c1csc(N/N=C/c2c[nH]c3ccccc23)n1
## Result 2

## Task For CCOC(=O)c1csc(N/N=C2/CCCCC2C)n1 (stereo not drawn) , what is its reported selectivity ratio?
## Result 3

## Task Which selectivity ratio reading was recorded for the compound CCOC(=O)c1csc(N/N=C(\C)c2ccncc2)n1 ?
## Result 9

## Task Item under review: CCOC(=O)c1csc(NN=C2CCCCC2)n1 . Reported selectivity ratio?
## Result 4

## Task GET /values?readout=selectivity ratio&item= CCOC(=O)c1csc(N/N=C(\C)c2cccs2)n1
## Result 15

## Task For the compound shown here, O=C(O)c1csc(NN=C2CCCCCC2)n1 , give the reported selectivity ratio.
## Result 3

## Task Could you tell me which selectivity ratio is on file for CCOC(=O)c1csc(N/N=C(\C)c2ccc3ccccc3c2)n1 ?
## Result 3

## Task Entry CC1CC/C(=N/Nc2nc(C(=O)O)cs2)C1 (stereo not drawn) has what selectivity ratio?
## Result 2

## Task Quick check: selectivity ratio of CC1CCCC/C1=N/Nc1nc(C(=O)O)cs1 (stereo not drawn) ?
## Result 4

## Task selectivity ratio for CCOC(=O)c1csc(N/N=C/c2ccc3c(c2)OCO3)n1 ?
## Result 1

## Task Param item = CCOC(=O)c1csc(N/N=C2/CCCC2C)n1 (stereo not drawn) ; retrieve measured selectivity ratio.
## Result 4

## Task // selectivity ratio lookup, key: CCOC(=O)c1csc(N/N=C(\C)c2ccccn2)n1
## Result 2
